Origin of measurements: ChEMBL document CHEMBL1123078

- system: Dihydrofolate reductase (Rattus norvegicus, UniProt Q920D2)
- Sequence (Q920D2 whole entry): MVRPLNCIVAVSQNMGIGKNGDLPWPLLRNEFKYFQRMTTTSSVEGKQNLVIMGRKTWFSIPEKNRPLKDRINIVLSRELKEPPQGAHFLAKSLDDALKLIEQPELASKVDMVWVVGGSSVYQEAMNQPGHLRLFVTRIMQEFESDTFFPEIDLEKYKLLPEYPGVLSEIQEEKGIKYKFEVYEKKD
Exam item: assign Met to entries whose IC50 is below 70 µM and Not met to entries at or above 70 µM. Note that a value of exactly 70 µM receives Not met.

* COc1cc(Cc2cnc(N)nc2N)cc(OCCCCCC(=O)O)c1OC | Met
* COC(=O)CCCCCCOc1cc(Cc2cnc(N)nc2N)cc(OC)c1OC | Not met
* COc1cc(Cc2cnc(N)nc2N)cc(OCCCC(=O)O)c1OC | Met
* COc1cc(Cc2cnc(N)nc2N)cc(OC)c1OCCCCC(=O)O | Not met
* COc1cc(Cc2cnc(N)nc2N)cc(OCCC(=O)O)c1OC | Not met
* COC(=O)CCCCCOc1cc(Cc2cnc(N)nc2N)cc(OC)c1OC | Not met
* COc1cc(Cc2cnc(N)nc2N)cc(OC)c1OCCCC(=O)O | Not met
* CCOC(=O)CCCOc1cc(Cc2cnc(N)nc2N)cc(OC)c1OC | Not met

---

- system: Dihydrofolate reductase (Gallus gallus)
- Sequence (P00378 whole entry): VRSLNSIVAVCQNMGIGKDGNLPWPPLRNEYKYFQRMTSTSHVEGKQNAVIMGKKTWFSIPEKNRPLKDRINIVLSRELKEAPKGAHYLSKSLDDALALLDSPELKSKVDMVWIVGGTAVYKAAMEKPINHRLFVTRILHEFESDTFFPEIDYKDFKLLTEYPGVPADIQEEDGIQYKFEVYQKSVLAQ
- assay protocol: Binding affinity against Dihydrofolate reductase of chicken liver
- settings: read-out: I50
reported metric: IC50 (µM)

• COc1cc(Cc2cnc(N)nc2N)cc(OC)c1OCCCC(=O)O = 350

---

Target protein (sequence): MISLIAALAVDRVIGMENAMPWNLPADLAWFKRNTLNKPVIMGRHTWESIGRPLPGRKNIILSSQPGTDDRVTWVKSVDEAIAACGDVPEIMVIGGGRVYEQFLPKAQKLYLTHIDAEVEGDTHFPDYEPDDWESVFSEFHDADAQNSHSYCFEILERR
reported metric: Ki (nM)

• COc1cc(Cc2cnc(N)nc2N)cc(OC)c1OCCCC(=O)O = 5.2

---

- Tested on: Staphylococcus aureus
- assay protocol: Relative in vitro Antibacterial activity against Staphylococcus aureus CN491 strain
- Format: functional
- Set-up: unit not given here
Exam item: assign class 1 to entries whose MIC is below 10 and class 0 to entries at or above 10. Note that a value of exactly 10 receives class 0.

• COC(=O)CCCCCOc1cc(Cc2cnc(N)nc2N)cc(OC)c1OC = class 1
• COc1cc(Cc2cnc(N)nc2N)cc(OCCC(=O)O)c1OC = class 0
• CCOC(=O)COc1c(OC)cc(Cc2cnc(N)nc2N)cc1OC = class 0
• COc1cc(Cc2cnc(N)nc2N)cc(OCCCC(=O)O)c1OC = class 0
• COc1cc(Cc2cnc(N)nc2N)cc(OC)c1OC = class 1
• COc1cc(Cc2cnc(N)nc2N)cc(OC)c1OCC(=O)O = class 0
• COC(=O)CCCCCCOc1cc(Cc2cnc(N)nc2N)cc(OC)c1OC = class 1
• COc1cc(Cc2cnc(N)nc2N)cc(OCC(=O)O)c1OC = class 0
• COc1cc(Cc2cnc(N)nc2N)cc(OC)c1OCCCCCC(=O)O = class 1
• COc1cc(Cc2cnc(N)nc2N)cc(OCCCCCCC(=O)O)c1OC = class 1
• COc1cc(Cc2cnc(N)nc2N)cc(OCCCCCC(=O)O)c1OC = class 1
• COC(=O)CCCCOc1cc(Cc2cnc(N)nc2N)cc(OC)c1OC = class 1
• COC(=O)COc1cc(Cc2cnc(N)nc2N)cc(OC)c1OC = class 0
• COc1cc(Cc2cnc(N)nc2N)cc(OCCCCC(=O)O)c1OC = class 1
• COC(=O)CCCCCOc1c(OC)cc(Cc2cnc(N)nc2N)cc1OC = class 1
